FYI, the data here is from patent US9309242B2.

tgt: UniProtKB P22607
Sequence (P22607 23-806): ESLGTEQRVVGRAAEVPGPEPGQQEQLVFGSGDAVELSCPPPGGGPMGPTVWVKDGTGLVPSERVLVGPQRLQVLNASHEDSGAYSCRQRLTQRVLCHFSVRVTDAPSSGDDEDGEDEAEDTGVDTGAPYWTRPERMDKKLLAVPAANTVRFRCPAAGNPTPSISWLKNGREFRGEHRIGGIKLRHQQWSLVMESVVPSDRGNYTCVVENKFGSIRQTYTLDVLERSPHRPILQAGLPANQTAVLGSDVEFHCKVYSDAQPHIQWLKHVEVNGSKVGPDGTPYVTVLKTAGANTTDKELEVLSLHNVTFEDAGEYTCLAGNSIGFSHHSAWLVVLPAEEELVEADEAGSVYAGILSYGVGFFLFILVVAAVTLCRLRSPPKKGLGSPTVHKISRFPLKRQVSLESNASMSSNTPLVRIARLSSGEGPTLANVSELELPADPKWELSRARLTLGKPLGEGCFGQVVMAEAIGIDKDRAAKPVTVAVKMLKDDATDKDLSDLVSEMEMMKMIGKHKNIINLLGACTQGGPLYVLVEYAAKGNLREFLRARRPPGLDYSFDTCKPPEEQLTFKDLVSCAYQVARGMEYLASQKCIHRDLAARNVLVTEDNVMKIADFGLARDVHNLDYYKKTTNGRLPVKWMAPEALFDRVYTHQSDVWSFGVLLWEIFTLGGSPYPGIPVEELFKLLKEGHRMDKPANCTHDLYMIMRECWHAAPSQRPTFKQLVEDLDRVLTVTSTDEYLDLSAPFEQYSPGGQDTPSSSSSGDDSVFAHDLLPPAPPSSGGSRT
assay-overview: FGFR3 (enzymatic assay), TR-FRET
Format: biochemical
protocol-conditions: read-out: FGFR 3 pIC50 (converted)
Assign labels as follows, please: Met for IC50 below 2 nM; Not met for IC50 equal to or exceeding 2 nM.

COc1cc(OC)c(F)c(N(CC(=O)O)c2ccc3ncc(-c4cnn(C)c4)nc3n2)c1 [Compound 231]	Not met
COc1cc(OC)c(F)c(N(Cc2cnn(C)c2)c2ccc3ncc(-c4cnn(C)c4)nc3n2)c1 [Compound 195]	Met
COc1cc(OC)c(F)c(N(CC2CCC(=O)N2)c2ccc3ncc(-c4cnn(CC(C)(C)O)c4)nc3n2)c1 (centres unmarked) [Compound 285]	Not met
COc1cc(OC)cc(N(CCCN2CCCC2=O)c2ccc3ncc(-c4cnn(C)c4)nc3n2)c1 [Compound 134]	Not met
COc1cc(OC)c(F)c(N(Cc2cc(C)no2)c2ccc3ncc(-c4cnn(C)c4)nc3n2)c1 [Compound 185]	Met
COc1cc(/N=c2\ccc3ncc(-c4cnn(C)c4)nc3n2CC2CCC(=O)N2)cc(OC)c1 (centres unmarked) [Compound 248]	Met
COc1cc(/N=c2\ccc3ncc(-c4cnn(C)c4)nc3n2CC2CCC(=O)N2CCO)c(F)c(OC)c1 (centres unmarked) [Compound 247]	Met
COc1cc(OC)cc(N(CCN2CCCC2=O)c2ccc3ncc(-c4cnn(C)c4)nc3n2)c1 [Compound 151]	Not met
COc1cc(OC)c(F)c(N(Cc2nc(OC)cc(OC)n2)c2ccc3ncc(-c4cnn(C)c4)nc3n2)c1 [Compound 220]	Not met
CNCCN(c1ccc2ncc(-c3cnn(C)c3)nc2n1)c1c(F)c(O)cc(OC)c1F [Compound 122]	Not met
COc1cc(/N=c2\ccc3ncc(-c4cnn(CC(C)(C)O)c4)nc3n2CC2CCC(=O)N2)c(F)c(OC)c1 (centres unmarked) [Compound 286]	Met
COc1cc(/N=c2\ccc3ncc(-c4cnn(C)c4)nc3n2CC2CCC(=O)N2C)c(F)c(OC)c1 (centres unmarked) [Compound 160]	Met
COc1cc(/N=c2\ccc3ncc(-c4cnn(C)c4)nc3n2CC2COC2)c(F)c(OC)c1 [Compound 143]	Met
COc1cc(OC)c(F)c(N(Cc2nnc(NCCO)o2)c2ccc3ncc(-c4cnn(C)c4)nc3n2)c1 [Compound 283]	Not met
COc1ccc(Cl)c(N(CC2CCC(=O)N2)c2ccc3ncc(-c4cnn(C)c4)nc3n2)c1Cl (single isomer, unassigned) [Compound 90]	Not met
COc1cc(OC)c(F)c(N(CC2CCC(=O)N2CCO)c2ccc3ncc(-c4cnn(C)c4)nc3n2)c1 (single isomer, unassigned) [Compound 218]	Not met
COc1cc(OC)c(F)c(N(CCNC2COC2)c2ccc3ncc(-c4cnn(C)c4)nc3n2)c1 [Compound 221]	Met
COc1cc(OC)c(F)c(N(CCN(C2COC2)C2COC2)c2ccc3ncc(-c4cnn(C)c4)nc3n2)c1F (single isomer, unassigned) [Compound 163]	Not met
COc1cc(OC)c(F)c(N(Cc2nc(Br)c[nH]2)c2ccc3ncc(-c4cnn(C)c4)nc3n2)c1 [Compound 238]	Met
COc1cc(OC)c(F)c(N(Cc2ncc[nH]2)c2ccc3ncc(-c4cnn(C5COC5)c4)nc3n2)c1 [Compound 253]	Met
COc1cc(OC)c(F)c(N(CC2CCOC2)c2ccc3ncc(-c4cnn(C)c4)nc3n2)c1 (single isomer, unassigned) [Compound 171]	Met
COc1cc(/N=c2\ccc3ncc(-c4cnn(C)c4)nc3n2CC2CCCOC2)cc(OC)c1 (centres unmarked) [Compound 165]	Met
COc1cc(OC)c(F)c(N(CC2CC2)c2ccc3ncc(-c4cnn(C)c4)nc3n2)c1F (single isomer, unassigned) [Compound 268]	Met
COc1cc(/N=c2\ccc3ncc(-c4cnn(C)c4)nc3n2Cc2c(C)noc2C)c(F)c(OC)c1 [Compound 179]	Met
COc1ccc(Cl)c(N(CC2CCC(=O)N2)c2ccc3ncc(-c4cnn(C)c4)nc3n2)c1Cl (centres unmarked) [Compound 94]	Not met
COc1cc(OC)c(F)c(N(Cc2ncc[nH]2)c2ccc3ncc(-c4ccncc4)nc3n2)c1 [Compound 211]	Met
COc1cc(/N=c2\ccc3ncc(-c4cnn(C)c4)nc3n2CCN2CCCC2=O)c(F)c(OC)c1 [Compound 156]	Met
COc1cc(OC)c(F)c(N(CC(=O)c2cnn(C)c2)c2ccc3ncc(-c4cnn(C)c4)nc3n2)c1 [Compound 225]	Not met
